Here's a roundup of pKd values tested on UniProt P35790, taken from various published works.
Sequence (P35790 whole entry): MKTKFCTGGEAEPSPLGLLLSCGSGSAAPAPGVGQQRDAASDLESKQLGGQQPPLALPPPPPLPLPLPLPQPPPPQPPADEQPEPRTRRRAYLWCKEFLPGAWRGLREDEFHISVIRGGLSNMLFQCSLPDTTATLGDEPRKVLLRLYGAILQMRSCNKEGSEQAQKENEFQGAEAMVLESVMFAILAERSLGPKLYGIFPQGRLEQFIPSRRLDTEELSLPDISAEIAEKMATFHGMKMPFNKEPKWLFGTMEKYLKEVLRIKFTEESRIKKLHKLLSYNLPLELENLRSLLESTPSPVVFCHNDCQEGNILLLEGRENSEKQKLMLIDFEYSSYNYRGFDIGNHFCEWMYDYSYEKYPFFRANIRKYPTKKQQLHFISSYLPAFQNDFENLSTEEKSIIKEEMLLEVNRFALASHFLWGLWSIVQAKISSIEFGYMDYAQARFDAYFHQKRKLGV
Numbers only, as −log10 of the molar value.

O=C(N1CCCCCC1)N1CCNCC1	3.47
CN(C)c1cc[n+](Cc2ccc(-c3ccccc3)cc2)cc1	5.77
CN(C)c1cc[n+](Cc2ccc(-c3ccc(C[n+]4ccc(N(C)c5ccc(Cl)cc5)cc4)cc3)cc2)cc1	6.21
Clc1ccc2c(N3CCCCCC3)ccnc2c1	4.35
Clc1ccc2c(N3CCCCCC3)cc[n+](Cc3ccccc3)c2c1	6.40

Input line: Would you mind telling me what pKd value was observed for "CN(c1ccccc1)c1ccnc2cc(Cl)ccc12" ?
Output line: 4.09
